Molecular target: T1, Extracellular domain of cyno PD1 (cPD1-ECD) (Macaca fascicularis (cynomolgus))
T1 construct: Expressed with a hexahistidine tag or as Fc fusion; also called cynoPD1-ECD; cynoPD-1-ECD
T1 chain: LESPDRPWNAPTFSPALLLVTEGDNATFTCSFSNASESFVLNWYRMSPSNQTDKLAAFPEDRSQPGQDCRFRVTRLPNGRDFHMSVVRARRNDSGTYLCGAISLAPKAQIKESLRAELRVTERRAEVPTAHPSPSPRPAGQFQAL
Assay: SPR ProteOn, cynoPD1-ECD; RANGE low replicate
reported-metric: koff (s⁻¹)
Respond with the bare value in s⁻¹.

binder	koff (s⁻¹)
PD1B187 (antibody, V domains shown, Tested as IgG2sigma; also called PD1H3/PD1L148) VH: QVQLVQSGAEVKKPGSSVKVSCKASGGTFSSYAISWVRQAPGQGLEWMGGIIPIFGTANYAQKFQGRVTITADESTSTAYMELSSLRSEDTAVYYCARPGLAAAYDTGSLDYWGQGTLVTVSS VL: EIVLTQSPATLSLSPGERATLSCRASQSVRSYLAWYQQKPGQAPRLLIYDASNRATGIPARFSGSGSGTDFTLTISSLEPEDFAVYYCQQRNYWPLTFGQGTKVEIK	0.00128

Data request: Respond only with koff recorded for PD1B149 (antibody, human IgG2, kappa, V domains shown, IgG2sigma/kappa; VH 41, VL 50; also called PD1H24/PD1L128) VH: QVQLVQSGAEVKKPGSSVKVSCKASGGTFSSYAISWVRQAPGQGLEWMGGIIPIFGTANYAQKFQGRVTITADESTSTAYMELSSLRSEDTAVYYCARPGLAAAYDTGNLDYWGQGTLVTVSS VL: EIVLTQSPATLSLSPGERATLSCRASQSVRNYLAWYQQKPGQAPRLLIHDASNRATGIPARFSGSGSGTDFTLTISSLEPEDFAVYYCQQRNYWPLTFGQGTKVEIKR
Data returned: 0.00348

Data request: Respond only with koff recorded for PD1B160 (antibody, human IgG2, kappa, V domains shown, IgG2sigma/kappa; VH 42, VL 51; also called PD1H131/PD1L101) VH: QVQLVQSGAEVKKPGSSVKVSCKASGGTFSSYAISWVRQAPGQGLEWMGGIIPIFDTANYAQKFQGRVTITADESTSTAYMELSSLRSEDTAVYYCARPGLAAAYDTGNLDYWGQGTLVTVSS VL: EIVLTQSPATLSLSPGERATLSCRASQSVDSYLAWYQQKPGQAPRLLIKDASDRATGIPARFSGSGSGTDFTLTISSLEPEDFAVYYCQQRGNWPLTFGQGTKVEIKR
Data returned: 0.00163
